System: Staphylococcus aureus
Details: Concentration 32 ug.mL-1; ASSAY_TEST Inhibition of Bacterial Growth; detection method Absorption (OD600); MEDIA CAMHB; plate type 384well; NBS; CORNING #3640; time 18 hr
Description: Antibacterial activity against Staphylococcus aureus MRSA ATCC 43300 (CO-ADD:GP_020); MIC in CAMBH media, using NBS plates, by OD(600)
Results with a measured potency or affinity are listed apart.
measurementLabel: Inhibition (%)

• [C-]#[N+]c1ccc(C(=O)NC(Cc2ccccc2F)C(=O)NCCC)cc1 (stereo not given) = 22.89
• [C-]#[N+]c1ccc(C(=O)NC(Cc2ccc(C(F)(F)F)cc2)C(=O)NCCC)cc1 (stereo not given) = 24.86
• CCCNC(=O)C(Cc1ccccc1)NC(=O)c1ccc(F)cc1 (stereo not given) = 30.52
• [C-]#[N+]c1ccc(C(=O)NC(Cc2ccc(F)cc2)C(=O)NCCC)cc1 (stereo not given) = 26.08
• [C-]#[N+]c1ccc(C(=O)NC(CC#C)C(=O)NCCC)cc1 (stereo not given) = 27.84

* * *

Each entry below lists one item and its recorded Inhibition value.
System: Escherichia coli
Details: Concentration 32 ug.mL-1; ASSAY_TEST Inhibition of Bacterial Growth; detection method Absorption (OD600); MEDIA CAMHB; plate type 384well; NBS; CORNING #3640; time 18 hr
Description: Antibacterial activity against Escherichia coli ATCC 25922 (CO-ADD:GN_001); MIC in CAMBH media using NBS plates, by OD(600)
Entries with a potency or affinity are not part of this list.
measurementLabel: Inhibition (%)

* [C-]#[N+]c1ccc(C(=O)NC(CC#C)C(=O)NCCC)cc1 (stereo not drawn) | 17.34
* [C-]#[N+]c1ccc(C(=O)NC(Cc2ccccc2F)C(=O)NCCC)cc1 (stereo not drawn) | 11.79
* CCCNC(=O)C(Cc1ccccc1)NC(=O)c1ccc(F)cc1 (stereo not drawn) | 11.25
* [C-]#[N+]c1ccc(C(=O)NC(CC)C(=O)NCCC)cc1 (stereo not drawn) | 3.26
* [C-]#[N+]c1ccc(C(=O)NC(CC=C)C(=O)NCCC)cc1 (stereo not drawn) | 6.66
* CCCNC(=O)C(Cc1ccccc1)NC(=O)Cc1ccccc1 (stereo not drawn) | 14.02
* CCCNC(=O)C(Cc1ccccc1C)NC(=O)c1ccc(C(F)(F)F)cc1 (stereo not drawn) | 15.38
* [C-]#[N+]c1ccc(C(=O)NC(Cc2ccc(F)cc2)C(=O)NCCC)cc1 (stereo not drawn) | 15

Measured values drawn from ChEMBL document CHEMBL4513142 for this set.
